Tested on: SW620 (Trop-2 −) cells
assay text: Flow cytometry binding, SW620 cells
Format: cell-based
stated conditions: Table 10, 300,000 cells, 1 ug antibody
Reported MFI values for a set of molecules
Enter a number only.

| molecule | MFI |
| --- | --- |
| h7E6_SVGL: humanized anti-Trop-2 antibody, VL SEQ ID NO: 6, VH SEQ ID NO: 5 (antibody, V domains shown) VH: QVQLQESGPGLVKPSETLSLTCTVSGGSISSYGVHWIRQPPGKGLEWIGVIWTSGVTDYNSALMGRVTISVDTSKNQFSLKLSSVTAADTAVYYCARDGDYDRYTMDYWGQGTLVTVSS VL: DIVMTQSPDSLAVSLGERATINCRASKSVSTSLYSYMHWYQQKPGQPPKLLIYLASNLESGVPDRFSGSGSGTDFTLTISSLQAEDVAVYYCQHSRELPYTFGQGTKLEIK | 135 |

Let's switch to this molecule now.
Briefly, MFI measured for h7E6_SVGN: humanized anti-Trop-2 antibody, VL SEQ ID NO: 7, VH SEQ ID NO: 5 (antibody, V domains shown) VH: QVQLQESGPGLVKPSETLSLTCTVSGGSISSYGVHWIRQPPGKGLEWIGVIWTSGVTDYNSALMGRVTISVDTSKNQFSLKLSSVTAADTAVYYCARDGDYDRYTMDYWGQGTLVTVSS VL: DIVMTQSPDSLAVSLGERATINCRASKSVSTSNYSYMHWYQQKPGQPPKLLIYLASNLESGVPDRFSGSGSGTDFTLTISSLQAEDVAVYYCQHSRELPYTFGQGTKLEIK : 140
